# SYSTEM_NAME: Src (Homo sapiens, UniProt P12931)
# Sequence (P12931 2-536 limits assumed): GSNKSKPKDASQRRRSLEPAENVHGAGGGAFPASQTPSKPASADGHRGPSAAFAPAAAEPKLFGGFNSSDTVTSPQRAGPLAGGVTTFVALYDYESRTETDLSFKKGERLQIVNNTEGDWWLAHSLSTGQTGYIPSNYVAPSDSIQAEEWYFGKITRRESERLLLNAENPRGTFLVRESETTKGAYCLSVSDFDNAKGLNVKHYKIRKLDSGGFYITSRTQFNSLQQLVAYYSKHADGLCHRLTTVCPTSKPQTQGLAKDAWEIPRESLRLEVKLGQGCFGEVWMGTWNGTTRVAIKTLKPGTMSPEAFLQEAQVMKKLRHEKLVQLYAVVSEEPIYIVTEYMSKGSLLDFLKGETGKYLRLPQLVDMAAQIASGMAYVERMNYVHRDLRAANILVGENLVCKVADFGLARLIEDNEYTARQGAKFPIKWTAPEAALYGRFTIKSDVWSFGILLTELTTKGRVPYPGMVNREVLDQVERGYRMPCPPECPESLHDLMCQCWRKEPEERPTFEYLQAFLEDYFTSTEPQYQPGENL
PROPERTY: IC50

>  <MOLECULE>
FC(F)(F)c1ccc(/C=C/c2nc(COc3ccc(CCCCn4ccnn4)cc3)co2)cc1 [Compound B4]

>  <PROPERTY>
IC50

>  <OBSERVED_RESULT>
> 25 µM

$$$$

###

# System: MIA-PaCa-2
# METHOD_DESCRIPTION: cells
# MEASUREMENT_PARAMETERS: Homo sapiens, MIA PaCa-2, read-out: Compound B4 IC50 (μmol/L), MIA-PaCa-2
pIC50: −log10 of the molar value.
PROPERTY: pIC50

>  <CPD_SMILES>
FC(F)(F)c1ccc(/C=C/c2nc(COc3ccc(CCCCn4ccnn4)cc3)co2)cc1

>  <OBSERVED_RESULT>
7.70

$$$$

###

# SYSTEM_NAME: HER2 (Homo sapiens, UniProt P04626)
# Sequence (P04626 23-1255): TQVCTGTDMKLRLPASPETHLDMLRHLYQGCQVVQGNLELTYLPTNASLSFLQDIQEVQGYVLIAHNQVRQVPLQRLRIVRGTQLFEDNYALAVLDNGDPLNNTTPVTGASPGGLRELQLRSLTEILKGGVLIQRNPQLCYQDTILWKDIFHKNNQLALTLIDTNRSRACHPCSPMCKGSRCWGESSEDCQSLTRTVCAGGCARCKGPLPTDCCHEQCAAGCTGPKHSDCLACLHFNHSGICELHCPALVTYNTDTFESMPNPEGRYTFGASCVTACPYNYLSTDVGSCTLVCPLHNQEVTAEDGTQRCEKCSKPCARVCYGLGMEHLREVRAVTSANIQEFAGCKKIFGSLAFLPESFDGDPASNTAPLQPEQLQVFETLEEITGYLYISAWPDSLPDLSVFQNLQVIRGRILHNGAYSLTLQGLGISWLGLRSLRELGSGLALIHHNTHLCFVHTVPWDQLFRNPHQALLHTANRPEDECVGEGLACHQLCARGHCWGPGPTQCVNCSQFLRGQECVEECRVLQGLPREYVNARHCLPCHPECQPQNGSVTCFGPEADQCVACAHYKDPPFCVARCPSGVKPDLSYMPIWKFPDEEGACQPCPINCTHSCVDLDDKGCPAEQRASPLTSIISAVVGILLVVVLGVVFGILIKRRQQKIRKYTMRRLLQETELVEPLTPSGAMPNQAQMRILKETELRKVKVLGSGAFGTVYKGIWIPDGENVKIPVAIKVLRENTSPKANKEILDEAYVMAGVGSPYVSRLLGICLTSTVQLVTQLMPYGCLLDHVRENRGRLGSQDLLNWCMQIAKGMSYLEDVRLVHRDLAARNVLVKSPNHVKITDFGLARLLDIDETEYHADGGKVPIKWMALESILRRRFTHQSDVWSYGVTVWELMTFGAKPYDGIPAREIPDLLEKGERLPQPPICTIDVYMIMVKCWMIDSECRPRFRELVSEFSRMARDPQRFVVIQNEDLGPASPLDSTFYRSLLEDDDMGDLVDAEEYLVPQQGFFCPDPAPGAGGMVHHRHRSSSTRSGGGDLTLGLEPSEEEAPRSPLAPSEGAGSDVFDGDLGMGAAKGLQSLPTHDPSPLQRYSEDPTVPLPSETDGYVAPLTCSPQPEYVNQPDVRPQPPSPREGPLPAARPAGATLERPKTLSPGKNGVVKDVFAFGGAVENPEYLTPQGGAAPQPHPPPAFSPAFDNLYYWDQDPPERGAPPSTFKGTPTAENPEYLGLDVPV

>  <CPD_SMILES>
FC(F)(F)c1ccc(/C=C/c2nc(COc3ccc(CCCCn4ccnn4)cc3)co2)cc1

>  <IC50, nM>
4

$$$$

###

# reported melting point; entries follow

>  <COMPOUND>
OCC(O)Cc1nccn1CCCc1cccc(OCc2coc(/C=C/c3ccc(C(F)(F)F)cc3)n2)c1 (stereo not shown)

>  <melting point>
102 to 104 °C

$$$$
>  <COMPOUND>
OCC(O)Cc1nccn1CCCc1cccc(OCc2coc(/C=C/c3ccc(F)cc3F)n2)c1 (stereo not shown)

>  <melting point>
92 to 94 °C

$$$$
>  <COMPOUND>
Cc1cccc(/C=C/c2nc(COc3ccc(CCCCn4ccnc4CCO)cc3)co2)c1

>  <melting point>
109 to 111 °C

$$$$
>  <COMPOUND>
Cc1cccc(/C=C/c2nc(COc3ccc(CCCCn4ccnc4CC(O)CO)cc3)co2)c1 (stereo not shown)

>  <melting point>
102 to 104 °C

$$$$

###

>  <CPD_SMILES>
OCCc1nccn1CCCCc1ccc(OCc2coc(/C=C/c3ccc(F)cc3F)n2)cc1

>  <melting point>
93 to 95 °C

$$$$
>  <CPD_SMILES>
Fc1ccc(/C=C/c2nc(COc3cccc(CCCn4ccnn4)c3)co2)c(F)c1

>  <melting point>
89 to 90 °C

$$$$
>  <CPD_SMILES>
Fc1ccc(/C=C/c2nc(COc3cccc(CCCn4ccnn4)c3)co2)cc1

>  <melting point>
105 to 106 °C

$$$$
>  <CPD_SMILES>
Cc1ccc(/C=C/c2nc(COc3ccc(CCCCn4ccnc4CCO)cc3)co2)cc1

>  <melting point>
108 to 109 °C

$$$$

###

Documented melting point across a set of compounds
PROPERTY: melting point

>  <COMPOUND>
OCCc1nccn1CCCc1ccc(OCc2coc(/C=C/c3ccc(F)cc3F)n2)cc1 [Compound B20]

>  <OBSERVED_RESULT>
94 to 96 °C

$$$$
>  <COMPOUND>
FC(F)(F)c1ccc(/C=C/c2nc(COc3ccc(CCCn4ccnn4)cc3)co2)cc1 [Compound B5]

>  <OBSERVED_RESULT>
157 to 158 °C

$$$$
>  <COMPOUND>
OCC(O)Cc1nccn1CCCCc1ccc(OCc2coc(/C=C/c3c(F)cccc3F)n2)cc1 (stereo not shown) [Compound B28]

>  <OBSERVED_RESULT>
123 to 125 °C

$$$$
>  <COMPOUND>
FC(F)(F)c1ccc(/C=C/c2nc(COc3cccc(CCCn4ccnn4)c3)co2)cc1 [Compound B6]

>  <OBSERVED_RESULT>
115 to 116 °C

$$$$
>  <COMPOUND>
OCCc1nccn1CCCCc1ccc(OCc2coc(/C=C/c3ccc(Br)cc3)n2)cc1 [Compound B16]

>  <OBSERVED_RESULT>
149 to 150 °C

$$$$
>  <COMPOUND>
OCC(O)Cc1nccn1CCCCc1ccc(OCc2coc(/C=C/c3ccc(F)cc3)n2)cc1 (stereo not shown) [Compound B23]

>  <OBSERVED_RESULT>
114 to 116 °C

$$$$
>  <COMPOUND>
Cc1ccccc1/C=C/c1nc(COc2ccc(CCCCn3ccnc3CCO)cc2)co1 [Compound B12]

>  <OBSERVED_RESULT>
91 to 93 °C

$$$$
>  <COMPOUND>
Fc1ccc(/C=C/c2nc(COc3ccc(CCCCn4ccnn4)cc3)co2)cc1 [Compound B2]

>  <OBSERVED_RESULT>
124 to 125 °C

$$$$
>  <COMPOUND>
CCc1ccc(/C=C/c2nc(COc3ccc(CCCCn4ccnc4CCO)cc3)co2)cc1 [Compound B13]

>  <OBSERVED_RESULT>
94 to 95 °C

$$$$
>  <COMPOUND>
OCC(O)Cc1nccn1CCCCc1ccc(OCc2coc(/C=C/c3ccc(F)cc3F)n2)cc1 (stereo not shown) [Compound B26]

>  <OBSERVED_RESULT>
126 to 128 °C

$$$$
